ASSAYED_TARGET: Drosophila OR10a (Drosophila melanogaster, UniProt Q9VYZ1)
Construct: expressed in transfected cells
Sequence (Q9VYZ1 whole entry, one chain of several): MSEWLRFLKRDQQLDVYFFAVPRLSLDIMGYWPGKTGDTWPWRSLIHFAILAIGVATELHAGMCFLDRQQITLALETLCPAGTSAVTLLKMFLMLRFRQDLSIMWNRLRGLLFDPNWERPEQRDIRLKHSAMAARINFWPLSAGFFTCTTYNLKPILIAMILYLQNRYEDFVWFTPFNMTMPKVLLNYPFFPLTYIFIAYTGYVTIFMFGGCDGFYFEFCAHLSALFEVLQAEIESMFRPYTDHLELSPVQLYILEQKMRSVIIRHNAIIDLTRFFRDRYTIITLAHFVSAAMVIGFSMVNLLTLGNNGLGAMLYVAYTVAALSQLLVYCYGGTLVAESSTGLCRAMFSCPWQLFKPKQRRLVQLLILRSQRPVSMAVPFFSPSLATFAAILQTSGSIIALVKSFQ
ASSAY_METHOD_TEXT: Calcium ion fluorescence (GCaMP6) assay, OR10a stable HEK293 cell line
Assay type: cell-based
TEST_CONDITIONS: HEK293, read-out: OR10a Average response (VUAA1-normalized), 10 μM VOC; 50 μM VUAA1 = 1; responses not exceeding 0.05 considered 0
MEASURED_ENDPOINT: activation at 10 µM (%)
Note: unit % is implicit; provide only the numeric part.

Study these solved cases before continuing.
CCCCOC(C)=O [butyl acetate] ... 0
C=C1CC[C@H]2O[C@]2(C)CC[C@@H]2[C@@H]1CC2(C)C [(-)-caryophyllene oxide] ... 0
C=C1CCC2CC1C2(C)C (stereo not shown) ... 4
Cc1ccccc1C ... 0

Now look at this one.
In plain terms, Cc1cccc(C)c1 has a documented activation at 10 µM of 0

----------
# DF norm AVERAGE OR10a values compiled below
ASSAYED_TARGET: Drosophila OR10a (Drosophila melanogaster)
Construct: expressed in transfected cells
ASSAY_METHOD_TEXT: Calcium ion fluorescence (GCaMP6) assay, OR10a stable HEK293 cell line
Assay type: cell-based
TEST_CONDITIONS: ligand concentration 100 (unit not given); 0.05 threshold, values below shown as 0
// print number alone

Study these solved cases before continuing.
Cc1ccccc1 ... 0.07043
CCCCCCCCCCC ... 0
CC1=CCC23CC1C(C)(C)C2CCC3C (centres unmarked) ... 0
CC/C=C\CCOC(C)=O [z3-hexenyl acetate] ... 0

In plain terms, C=Cc1ccccc1 has a documented DF norm AVERAGE OR10a of 0.144

----------
ASSAYED_TARGET: Drosophila OR49b (Drosophila melanogaster)
Construct: expressed in transfected cells
Sequence (Q9V6H2 1-375): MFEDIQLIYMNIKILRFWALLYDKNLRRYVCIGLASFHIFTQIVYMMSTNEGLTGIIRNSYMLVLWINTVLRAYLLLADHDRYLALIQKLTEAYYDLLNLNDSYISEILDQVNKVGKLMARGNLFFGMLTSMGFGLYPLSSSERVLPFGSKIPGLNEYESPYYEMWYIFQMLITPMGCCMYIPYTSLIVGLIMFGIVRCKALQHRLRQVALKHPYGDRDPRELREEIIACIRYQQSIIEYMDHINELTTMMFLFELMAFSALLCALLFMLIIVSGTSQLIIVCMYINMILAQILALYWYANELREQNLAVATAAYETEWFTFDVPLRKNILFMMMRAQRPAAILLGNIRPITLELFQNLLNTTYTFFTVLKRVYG
Sequence (Q9VNB5 1-486 partner): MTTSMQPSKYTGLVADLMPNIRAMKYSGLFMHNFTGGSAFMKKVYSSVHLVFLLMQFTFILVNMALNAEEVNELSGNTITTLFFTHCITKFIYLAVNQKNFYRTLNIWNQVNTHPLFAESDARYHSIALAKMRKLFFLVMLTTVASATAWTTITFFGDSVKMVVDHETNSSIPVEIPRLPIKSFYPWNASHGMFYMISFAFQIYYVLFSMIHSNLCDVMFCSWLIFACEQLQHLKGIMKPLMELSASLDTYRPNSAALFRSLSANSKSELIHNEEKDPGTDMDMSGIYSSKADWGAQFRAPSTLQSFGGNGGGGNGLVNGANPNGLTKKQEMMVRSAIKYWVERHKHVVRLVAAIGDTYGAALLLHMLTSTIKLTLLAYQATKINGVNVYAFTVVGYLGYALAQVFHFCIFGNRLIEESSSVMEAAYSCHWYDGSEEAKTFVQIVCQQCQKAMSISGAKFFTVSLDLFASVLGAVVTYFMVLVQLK
ASSAY_METHOD_TEXT: cell-based
TEST_CONDITIONS: OR49b; fit of the averaged curve; read-out: EC50, FITTED AVERAGE CURVE
MEASURED_ENDPOINT: pEC50
Please keep in mind that pEC50 is minus log10 of the molar concentration; only the number is needed.

In plain terms, C=Cc1ccccc1 [styrene] has a documented pEC50 of 4.61
